These entries and their values trace back to ChEMBL document CHEMBL4665709.

Test: Therapeutic index, ratio of MHC for human RBC to geometric mean of peptide MIC for Escherichia coli UB1005
Assay type: toxicity
Conditions: human red blood cells (RBC), read-out: TI
Where a SMILES comes first, the peptide text is derived from it.
We begin with a simple list: items and their reported selectivity ratio.
Hey, just send me the number, nothing else.

Here's what some known entries look like.
CC[C@H](C)[C@H](N)C(=O)N[C@@H](CS)C(=O)N[C@@H](CCCNC(=N)N)C(=O)N[C@@H](CCCCN)C(=O)N1CCC[C@H]1C(=O)N[C@H](C(=O)N[C@H](C(=O)N[C@@H](CS)C(=O)N[C@@H](CCCNC(=N)N)C(=O)N[C@@H](CCCCN)C(=O)N1CCC[C@H]1C(=O)N[C@H](C(N)=O)[C@@H](C)CC)[C@@H](C)CC)[C@@H](C)CC (H-ICRKPIICRKPI-NH2)	2
CC(C)[C@H](N)C(=O)N[C@@H](CS)C(=O)N[C@@H](CCCNC(=N)N)C(=O)N[C@@H](CCCCN)C(=O)N1CCC[C@H]1C(=O)N[C@H](C(=O)N[C@H](C(=O)N[C@@H](CS)C(=O)N[C@@H](CCCNC(=N)N)C(=O)N[C@@H](CCCCN)C(=O)N1CCC[C@H]1C(=O)N[C@H](C(=O)N[C@H](C(=O)N[C@@H](CS)C(=O)N[C@@H](CCCNC(=N)N)C(=O)N[C@@H](CCCCN)C(=O)N1CCC[C@H]1C(=O)N[C@H](C(N)=O)C(C)C)C(C)C)C(C)C)C(C)C)C(C)C (H-VCRKPVVCRKPVVCRKPV-NH2)	6.35

// below: selectivity ratio requested for another compound
Kindly indicate its recorded selectivity ratio. Item: CC[C@H](C)[C@H](N)C(=O)N[C@@H](CS)C(=O)N[C@@H](CCCNC(=N)N)C(=O)N[C@@H](CCCCN)C(=O)N1CCC[C@H]1C(=O)N[C@H](C(=O)N[C@H](C(=O)N[C@@H](CS)C(=O)N[C@@H](CCCNC(=N)N)C(=O)N[C@@H](CCCCN)C(=O)N1CCC[C@H]1C(=O)N[C@H](C(=O)N[C@H](C(=O)N[C@@H](CS)C(=O)N[C@@H](CCCNC(=N)N)C(=O)N[C@@H](CCCCN)C(=O)N1CCC[C@H]1C(=O)N[C@H](C(N)=O)[C@@H](C)CC)[C@@H](C)CC)[C@@H](C)CC)[C@@H](C)CC)[C@@H](C)CC (H-ICRKPIICRKPIICRKPI-NH2)
11.3
